# tested system: DLL3 endogenously expressed on NCI-H82 cells (UniProt Q9NYJ7)
# Sequence (Q9NYJ7 27-618): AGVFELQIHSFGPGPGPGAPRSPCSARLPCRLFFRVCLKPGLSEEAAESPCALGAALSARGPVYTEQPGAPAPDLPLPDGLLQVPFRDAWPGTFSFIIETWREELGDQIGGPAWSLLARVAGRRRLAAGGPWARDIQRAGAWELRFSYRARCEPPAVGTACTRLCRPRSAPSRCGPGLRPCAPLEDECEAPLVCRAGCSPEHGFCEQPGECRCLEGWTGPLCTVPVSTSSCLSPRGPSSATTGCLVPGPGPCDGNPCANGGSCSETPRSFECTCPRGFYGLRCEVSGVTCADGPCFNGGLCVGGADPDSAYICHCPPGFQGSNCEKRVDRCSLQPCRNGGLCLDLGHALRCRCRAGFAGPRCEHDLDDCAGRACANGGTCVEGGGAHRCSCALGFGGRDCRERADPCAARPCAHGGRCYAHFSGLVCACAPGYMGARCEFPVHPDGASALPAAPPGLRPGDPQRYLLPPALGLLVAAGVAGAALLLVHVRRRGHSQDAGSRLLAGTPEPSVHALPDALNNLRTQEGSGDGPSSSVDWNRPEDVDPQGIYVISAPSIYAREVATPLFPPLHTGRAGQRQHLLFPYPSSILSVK
# assay name: FACS on NCI-H82 cells; antibody 0.16 nM
measured quantity: MFI
Simply state the number, no unit and no words.

Query string: Tell me its MFI given Hab014VL1VH2-hFc (scFv, part only; not given: VL-VH linker and human IgG1 Fc, V domains shown, not shown: another chain or arm of the molecule; a dimerising Fc or GST; small tags and cut ends) VL: DIQMTQSPSSLSASVGDRVTITCKASEDIYNRLAWYQQKPGKVPKLLISGATSLETGVPSRFSGSGSGTDFTLTISSLQPEDVATYYCQQYWSLPWTFGGGTKVEIK VH: EVQLVQSGAEVKKPGASVKVSCKASGYTFTDYYMNWVRQAPGQRLEWMGDINPNHGDTGYNQKFTGRVTLTVDKSASTAYMELSSLRSEDTAVYYCARNFFYYGTTYGWYFDVWGQGTTVTVSS as the entry.
Result string: 419

Query string: Tell me its MFI given Hab008L3H2a-hFc (scFv, part only; not given: VL-VH linker and human IgG1 Fc, V domains shown, not shown: another chain or arm of the molecule; a dimerising Fc or GST; small tags and cut ends) VL: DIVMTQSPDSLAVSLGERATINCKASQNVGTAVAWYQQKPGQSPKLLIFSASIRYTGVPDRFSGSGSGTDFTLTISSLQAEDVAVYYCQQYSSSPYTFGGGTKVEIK VH: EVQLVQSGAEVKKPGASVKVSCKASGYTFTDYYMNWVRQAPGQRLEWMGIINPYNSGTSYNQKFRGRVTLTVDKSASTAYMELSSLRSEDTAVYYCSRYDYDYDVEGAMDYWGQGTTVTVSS as the entry.
Result string: 97

Query string: Tell me its MFI given Hab015VL5VH6a-hFc (scFv, part only; not given: scFv linker and human IgG1 Fc, V domains shown, not shown: another chain or arm of the molecule; a dimerising Fc or GST; small tags and cut ends) VL: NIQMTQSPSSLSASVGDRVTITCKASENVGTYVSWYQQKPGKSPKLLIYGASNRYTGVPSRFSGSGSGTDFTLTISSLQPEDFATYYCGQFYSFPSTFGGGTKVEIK VH: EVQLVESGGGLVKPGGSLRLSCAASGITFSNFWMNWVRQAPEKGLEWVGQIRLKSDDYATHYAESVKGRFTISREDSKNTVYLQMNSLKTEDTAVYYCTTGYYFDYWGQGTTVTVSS as the entry.
Result string: 430

Query string: Tell me its MFI given Hab008L1H2a-hFc (scFv, part only; not given: VL-VH linker and human IgG1 Fc, V domains shown, not shown: another chain or arm of the molecule; a dimerising Fc or GST; small tags and cut ends) VL: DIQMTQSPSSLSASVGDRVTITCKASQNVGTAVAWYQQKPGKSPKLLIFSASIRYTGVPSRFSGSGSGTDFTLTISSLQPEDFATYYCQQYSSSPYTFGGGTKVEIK VH: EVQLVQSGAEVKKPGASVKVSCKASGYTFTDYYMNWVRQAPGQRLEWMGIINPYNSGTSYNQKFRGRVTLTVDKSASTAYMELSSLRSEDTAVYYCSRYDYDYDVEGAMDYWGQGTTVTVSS as the entry.
Result string: 194

Query string: Tell me its MFI given Hab006VL4VH1-hFc (scFv, part only; not given: scFv linker and human IgG1 Fc, V domains shown, not shown: another chain or arm of the molecule; a dimerising Fc or GST; small tags and cut ends) VL: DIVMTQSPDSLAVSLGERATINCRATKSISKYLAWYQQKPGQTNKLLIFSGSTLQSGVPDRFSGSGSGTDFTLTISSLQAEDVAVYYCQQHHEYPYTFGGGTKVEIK VH: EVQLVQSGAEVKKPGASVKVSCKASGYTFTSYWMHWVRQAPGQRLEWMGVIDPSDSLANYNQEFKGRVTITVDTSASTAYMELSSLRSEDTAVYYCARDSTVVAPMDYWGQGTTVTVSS as the entry.
Result string: 397
